Hello, the source for this data is ChEMBL document CHEMBL1772967, in case you need it.

Biological target: Albumin (Rattus norvegicus)
Sequence (P02770 whole entry): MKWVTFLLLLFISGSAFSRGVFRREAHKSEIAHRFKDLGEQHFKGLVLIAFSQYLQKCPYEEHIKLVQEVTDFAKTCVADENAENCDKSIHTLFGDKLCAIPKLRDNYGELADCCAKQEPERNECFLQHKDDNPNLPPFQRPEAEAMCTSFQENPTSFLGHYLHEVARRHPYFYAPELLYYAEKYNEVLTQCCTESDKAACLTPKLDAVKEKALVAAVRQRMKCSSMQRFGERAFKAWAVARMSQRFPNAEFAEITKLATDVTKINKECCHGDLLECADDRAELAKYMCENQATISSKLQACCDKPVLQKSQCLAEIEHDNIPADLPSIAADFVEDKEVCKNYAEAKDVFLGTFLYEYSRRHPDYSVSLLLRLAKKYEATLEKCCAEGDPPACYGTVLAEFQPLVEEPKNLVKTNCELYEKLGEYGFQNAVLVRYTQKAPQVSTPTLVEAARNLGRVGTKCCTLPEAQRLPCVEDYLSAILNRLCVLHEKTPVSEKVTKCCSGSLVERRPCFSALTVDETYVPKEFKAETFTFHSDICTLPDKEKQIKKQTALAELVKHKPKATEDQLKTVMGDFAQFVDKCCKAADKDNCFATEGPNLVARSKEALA
Test: Binding affinity to rat serum albumin at 37 degC by surface plasmon resonance assay
observable: Kd (µM)

>>> print(df.to_string())
                         chemical_structure  quantitative_result
0  CS(=O)(=O)c1ccc(C(=O)Nc2ccc(Cl)c(-c3ccccn3)c2)c(Cl)c1                  140

----------
Assay: Binding affinity to high-affinity site of human alpha-1-acid glycoprotein at 20 degC by surface plasmon resonance assay
Format: ADME
pKd: −log10 of the molar value.
observable: pKd

>>> df
                         chemical_structure  quantitative_result
0  C=CC1=C(C)/C(=C/C2=NC(=C\c3[nH]c(/C=C4\NC(=O)C(C)=C4C=C)c(C)c3CCC(=O)O)/C(CCC(=O)O)=C2C)NC1=O                 4.82
1  CS(=O)(=O)c1ccc(C(=O)Nc2ccc(Cl)c(-c3ccccn3)c2)c(Cl)c1                 5.43

----------
Kd reference
Test: Binding affinity to low-affinity site of human alpha-1-acid glycoprotein at 20 degC by surface plasmon resonance assay
Format: ADME
observable: Kd (µM)

>>> print(df.to_string())
                         chemical_structure  quantitative_result
0  CS(=O)(=O)c1ccc(C(=O)Nc2ccc(Cl)c(-c3ccccn3)c2)c(Cl)c1                  139
1  C=CC1=C(C)/C(=C/C2=NC(=C\c3[nH]c(/C=C4\NC(=O)C(C)=C4C=C)c(C)c3CCC(=O)O)/C(CCC(=O)O)=C2C)NC1=O                  219

----------
Experiment: Binding affinity to human alpha-1-acid glycoprotein at 20 degC by isothermal titration calorimetry analysis
Assay type: ADME
pKd: −log10 of the molar value.
observable: pKd

                         chemical_structure  observable  quantitative_result
0  CS(=O)(=O)c1ccc(C(=O)Nc2ccc(Cl)c(-c3ccccn3)c2)c(Cl)c1         pKd                 5.96
1  C=CC1=C(C)/C(=C/C2=NC(=C\c3[nH]c(/C=C4\NC(=O)C(C)=C4C=C)c(C)c3CCC(=O)O)/C(CCC(=O)O)=C2C)NC1=O         pKd                 5.15

----------
Assay: Binding affinity to low-affinity binding site of rat alpha-1-acid glycoprotein at 20 degC by surface plasmon resonance assay
Type: ADME
pKd: −log10 of the molar value.
observable: pKd

>>> print(df.to_string())
                         chemical_structure  quantitative_result
0  C=CC1=C(C)/C(=C/C2=NC(=C\c3[nH]c(/C=C4\NC(=O)C(C)=C4C=C)c(C)c3CCC(=O)O)/C(CCC(=O)O)=C2C)NC1=O                 2.77

----------
Assay: Binding affinity to high-affinity binding site of rat alpha-1-acid glycoprotein at 20 degC by surface plasmon resonance assay
Type: ADME
pKd: −log10 of the molar value.
observable: pKd

>>> df
                                   compound  quantitative_result
0  C=CC1=C(C)/C(=C/C2=NC(=C\c3[nH]c(/C=C4\NC(=O)C(C)=C4C=C)c(C)c3CCC(=O)O)/C(CCC(=O)O)=C2C)NC1=O [BILIVERDIN]                 4.15
